Parameter TC50 (50% cytotoxicity): see the listing below.
- Tested on: PBMC
- assay.method.text: XTT viability (TC50) in PBMC assay
- condition.details: PBMC, XTT
readout: TC50 (50% cytotoxicity) (µg/mL)

> print(dat)
                                   compound                  readout  lt.gt.eq  experimental.result
1  CCCCCc1cc(O)c2c(c1)OC(C)(C)C1CCC(C(=O)O)=CC21 (centres unmarked)  TC50 (50% cytotoxicity)         =                 71.1
2  CCCCCc1cc(O)c2c(c1)OC(C)(C)[C@@H]1CCC(C)=C[C@@H]21 [A9 tetrahydrocannabinaol, reference compound]  TC50 (50% cytotoxicity)         >                  0.1
3  CCCCCc1cc(O)c2c(c1)OC(C)(C)c1ccc(C)cc1-2  TC50 (50% cytotoxicity)         =                 7.66
4  C=C(C)[C@@H]1CCC(C)=C[C@H]1c1c(O)cc(CCCCC)cc1O [Cannabidiol, reference compound]  TC50 (50% cytotoxicity)         =                 7.76
